# Tested on: Enterococcus faecalis
# Assay Overview: Antibacterial activity against Enterococcus faecalis
# Assay type: functional
Could you please report measured MIC for the items listed next?

Tell me the measured MIC of COc1c(N2C[C@H]3CCCN(C(=O)c4ccc(Cl)cc4)[C@H]3C2)c(F)cc2c(=O)c(C(=O)O)cn(C3CC3)c12 , please.
≤ 1.23 µg/mL

Tell me the measured MIC of COc1c(N2C[C@H]3CCCN(Cc4ccc(Cl)cc4)[C@H]3C2)c(F)cc2c(=O)c(C(=O)O)cn(C3CC3)c12 , please.
< 2.39 µg/mL

Tell me the measured MIC of COc1c(N2C[C@H]3CCCN(S(=O)(=O)c4ccc(Br)cc4)[C@H]3C2)c(F)cc2c(=O)c(C(=O)O)cn(C3CC3)c12 , please.
< 2.42 µg/mL

Tell me the measured MIC of COc1c(N2C[C@H]3CCCN(Cc4ccc(Br)cc4)[C@H]3C2)c(F)cc2c(=O)c(C(=O)O)cn(C3CC3)c12 , please.
< 2.39 µg/mL

Tell me the measured MIC of CCn1c(S)nnc1CN1CCN(c2cc3c(cc2F)c(=O)c(C(=O)O)cn3CC)CC1 , please.
< 0.24 µg/mL

Tell me the measured MIC of COc1c(N2C[C@H]3CCCN(S(=O)(=O)c4ccc(C)cc4)[C@H]3C2)c(F)cc2c(=O)c(C(=O)O)cn(C3CC3)c12 , please.
< 2.42 µg/mL

Tell me the measured MIC of COc1c(N2C[C@H]3CCCN(C(=O)c4ccc(C)cc4)[C@H]3C2)c(F)cc2c(=O)c(C(=O)O)cn(C3CC3)c12 , please.
≤ 1.23 µg/mL

====

# Test system: Bacillus cereus
# Assay Overview: Antibacterial activity against Bacillus cereus
# Assay type: functional
Outcome Measure: MIC

Tell me the measured MIC of COc1c(N2C[C@H]3CCCN(C(=O)c4ccc(Br)cc4)[C@H]3C2)c(F)cc2c(=O)c(C(=O)O)cn(C3CC3)c12 , please.
≤ 1.23 µg/mL

Tell me the measured MIC of COc1c(N2C[C@H]3CCCN(C(=O)c4ccc([N+](=O)[O-])cc4)[C@H]3C2)c(F)cc2c(=O)c(C(=O)O)cn(C3CC3)c12 , please.
≤ 1.23 µg/mL

Tell me the measured MIC of CCn1c(S)nnc1CN1CCN(c2cc3c(cc2F)c(=O)c(C(=O)O)cn3CC)CC1 , please.
< 0.24 µg/mL

Tell me the measured MIC of COc1c(N2C[C@H]3CCCN(C(=O)c4ccc(Cl)cc4)[C@H]3C2)c(F)cc2c(=O)c(C(=O)O)cn(C3CC3)c12 , please.
≤ 1.23 µg/mL

Tell me the measured MIC of COc1c(N2C[C@@H]3CCCN[C@@H]3C2)c(F)cc2c(=O)c(C(=O)O)cn(C3CC3)c12 , please.
< 0.6 µg/mL

Tell me the measured MIC of CCn1cc(C(=O)O)c(=O)c2cc(F)c(N3CCNCC3)cc21 , please.
< 0.24 µg/mL

Tell me the measured MIC of COc1c(N2C[C@H]3CCCN(C(=O)c4ccc(C)cc4)[C@H]3C2)c(F)cc2c(=O)c(C(=O)O)cn(C3CC3)c12 , please.
≤ 1.23 µg/mL

Tell me the measured MIC of COc1c(N2C[C@H]3CCCN(C(=O)c4ccc(F)cc4)[C@H]3C2)c(F)cc2c(=O)c(C(=O)O)cn(C3CC3)c12 , please.
≤ 1.23 µg/mL

Tell me the measured MIC of COc1ccc(C(=O)N2CCC[C@@H]3CN(c4c(F)cc5c(=O)c(C(=O)O)cn(C6CC6)c5c4OC)C[C@@H]32)cc1 , please.
≤ 1.23 µg/mL

Tell me the measured MIC of COc1c(N2C[C@H]3CCCN(C(=O)c4ccccc4)[C@H]3C2)c(F)cc2c(=O)c(C(=O)O)cn(C3CC3)c12 , please.
< 1.23 µg/mL
